molecular target: HGK/MAP4K4 (Homo sapiens); experiment: Radiolabeled ATP kinase assay (Reaction Biology Corp.), HGK; format: biochemical; parameters: purchased Reaction Biology Corp; conditions: [Cmpd] 0.025 μM; 10 μM ATP; read-out: % Enzyme Activity (relative to DMSO controls), HGK/MAP4K4, Data 1
Sequence (O95819 whole entry): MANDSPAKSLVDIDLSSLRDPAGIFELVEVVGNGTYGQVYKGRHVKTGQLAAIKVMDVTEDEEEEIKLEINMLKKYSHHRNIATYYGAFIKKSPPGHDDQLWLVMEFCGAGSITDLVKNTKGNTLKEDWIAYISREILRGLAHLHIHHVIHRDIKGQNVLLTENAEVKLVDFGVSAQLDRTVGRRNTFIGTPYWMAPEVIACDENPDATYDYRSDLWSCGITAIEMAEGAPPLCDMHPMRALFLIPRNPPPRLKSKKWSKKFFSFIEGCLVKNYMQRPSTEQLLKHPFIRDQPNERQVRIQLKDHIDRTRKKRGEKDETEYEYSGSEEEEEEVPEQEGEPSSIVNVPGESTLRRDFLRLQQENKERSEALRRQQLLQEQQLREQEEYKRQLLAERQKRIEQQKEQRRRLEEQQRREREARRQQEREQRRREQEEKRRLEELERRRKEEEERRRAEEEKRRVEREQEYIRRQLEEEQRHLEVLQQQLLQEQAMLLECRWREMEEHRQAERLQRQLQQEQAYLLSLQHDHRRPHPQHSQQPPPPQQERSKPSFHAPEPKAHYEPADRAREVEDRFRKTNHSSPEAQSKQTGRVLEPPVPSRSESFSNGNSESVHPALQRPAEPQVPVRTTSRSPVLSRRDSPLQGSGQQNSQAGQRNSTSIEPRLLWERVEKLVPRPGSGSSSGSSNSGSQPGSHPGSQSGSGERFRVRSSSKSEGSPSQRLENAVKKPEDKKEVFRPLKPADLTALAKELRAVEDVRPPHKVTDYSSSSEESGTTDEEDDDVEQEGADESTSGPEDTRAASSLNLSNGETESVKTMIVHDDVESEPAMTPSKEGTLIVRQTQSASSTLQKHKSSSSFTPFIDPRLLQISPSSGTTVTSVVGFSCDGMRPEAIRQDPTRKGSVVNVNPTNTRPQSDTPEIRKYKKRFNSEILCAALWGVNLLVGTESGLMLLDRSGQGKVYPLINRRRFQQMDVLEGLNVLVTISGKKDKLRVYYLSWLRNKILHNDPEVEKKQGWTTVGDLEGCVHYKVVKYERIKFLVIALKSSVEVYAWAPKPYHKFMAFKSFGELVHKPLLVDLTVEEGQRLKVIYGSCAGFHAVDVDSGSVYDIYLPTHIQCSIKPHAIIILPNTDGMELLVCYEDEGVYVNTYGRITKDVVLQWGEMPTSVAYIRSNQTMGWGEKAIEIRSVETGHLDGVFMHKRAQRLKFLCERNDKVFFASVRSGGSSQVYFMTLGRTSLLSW
endpoint: remaining activity at 0.025 µM (%)
Give just the number in %; leave the unit off.

[[record]]
compound = "CN1CCN(Cc2ccc(-c3cnc4[nH]cc(-c5cccc([N+](=O)[O-])c5)c4c3)cc2)CC1"
unit_info = "%"
experimental_value = 3.92

[[record]]
compound = "Cc1ccc(C)c(-c2c[nH]c3ncc(-c4ccc(CN5CCN(C)CC5)cc4)cc23)c1"
unit_info = "%"
experimental_value = 69

[[record]]
compound = "CN1CCN(Cc2ccc(-c3cnc4[nH]cc(-c5ccc6[nH]ccc6c5)c4c3)cc2)CC1 [Compound 1, reference compound]"
unit_info = "%"
experimental_value = 18.5

[[record]]
compound = "COc1cc(-c2c[nH]c3ncc(-c4ccc(CN5CCN(C)CC5)cc4)cc23)cc(OC)c1OC"
unit_info = "%"
experimental_value = 35.6

[[record]]
compound = "CN1C2CCC1CN(Cc1ccc(-c3cnc4[nH]cc(-c5ccc6[nH]ccc6c5)c4c3)cc1)C2 [Compound 12b]"
unit_info = "%"
experimental_value = 69

[[record]]
compound = "CN1CC2CCC(C1)N2Cc1ccc(-c2cnc3[nH]cc(-c4cccc5[nH]ncc45)c3c2)cc1 [Compound 12e]"
unit_info = "%"
experimental_value = 2.73


Proceed to the following item.
Query: Please supply the value of reported remaining activity at 0.025 µM for the item CN1CCN(Cc2ccc(-c3cnc4[nH]cc(-c5ccc(Cl)cc5Cl)c4c3)cc2)CC1
Reply: 67.9

* * *

molecular target: MLK3/MAP3K11 (Homo sapiens, UniProt Q16584); construct: purchased Reaction Biology Corp; assay: Radiolabeled ATP kinase assay (Reaction Biology Corp.), MLK3; format: biochemical; settings: [Cmpd] 0.1 μM; 10 μM ATP
Sequence (Q16584 whole entry): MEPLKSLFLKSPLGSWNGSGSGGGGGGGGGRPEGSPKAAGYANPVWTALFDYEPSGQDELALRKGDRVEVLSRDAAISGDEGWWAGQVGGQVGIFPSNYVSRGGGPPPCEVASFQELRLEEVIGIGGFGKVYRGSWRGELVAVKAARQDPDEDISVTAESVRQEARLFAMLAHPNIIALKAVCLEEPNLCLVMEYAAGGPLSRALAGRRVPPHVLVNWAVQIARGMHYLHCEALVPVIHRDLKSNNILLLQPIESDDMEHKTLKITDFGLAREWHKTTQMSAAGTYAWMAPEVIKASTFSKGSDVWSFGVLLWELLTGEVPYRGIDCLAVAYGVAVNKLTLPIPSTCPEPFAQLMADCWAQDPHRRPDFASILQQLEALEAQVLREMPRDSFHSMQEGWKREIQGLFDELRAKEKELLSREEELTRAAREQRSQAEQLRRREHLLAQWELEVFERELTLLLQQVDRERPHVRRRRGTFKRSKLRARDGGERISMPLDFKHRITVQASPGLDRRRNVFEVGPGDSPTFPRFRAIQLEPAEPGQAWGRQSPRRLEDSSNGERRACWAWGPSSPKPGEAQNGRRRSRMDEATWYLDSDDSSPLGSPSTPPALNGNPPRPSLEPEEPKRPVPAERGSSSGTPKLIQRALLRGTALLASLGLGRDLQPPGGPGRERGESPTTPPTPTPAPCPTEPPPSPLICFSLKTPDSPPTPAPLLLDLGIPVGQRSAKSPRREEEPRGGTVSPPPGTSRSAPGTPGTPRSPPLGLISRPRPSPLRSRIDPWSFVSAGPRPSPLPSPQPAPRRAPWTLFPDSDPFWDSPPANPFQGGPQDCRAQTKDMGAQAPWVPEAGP
endpoint: % Enzyme Activity Remaining (relative to DMSO controls), MLK3/MAP3K11, Data 1 (%)
Numeric only. Scale: %

Worked examples, 5 compounds total:
[[record]]
given_smiles = "Cc1cc(-c2c[nH]c3ncc(-c4ccc(CN5CCN(C)CC5)cc4)cc23)cnc1N"
unit_info = "%"
experimental_value = 58.50

[[record]]
given_smiles = "CN1CCN(Cc2ccc(-c3cnc4[nH]cc(-c5ccc(F)c(C(=O)NCc6ccco6)c5)c4c3)cc2)CC1"
unit_info = "%"
experimental_value = 84.24

[[record]]
given_smiles = "CN1CCN(Cc2ccc(-c3cnc4[nH]cc(-c5ccoc5)c4c3)cc2)CC1"
unit_info = "%"
experimental_value = 75.10

[[record]]
given_smiles = "CN1CCN(Cc2ccc(-c3cnc4[nH]cc(-c5ccc6c(c5)OCCO6)c4c3)cc2)CC1"
unit_info = "%"
experimental_value = 25.04

[[record]]
given_smiles = "CN1CCN(Cc2ccc(-c3cnc4[nH]cc(-c5ccc(N)nc5)c4c3)cc2)CC1"
unit_info = "%"
experimental_value = 67.62


Query: Return value of % Enzyme Activity Remaining (relative to DMSO controls), MLK3/MAP3K11, Data 1 for input CN1CCN(Cc2ccc(-c3cnc4[nH]cc(-c5ccc6cnn(C)c6c5)c4c3)cc2)CC1 , no commentary.
Reply: 54.67

Query: Identify measured % Enzyme Activity Remaining (relative to DMSO controls), MLK3/MAP3K11, Data 1 corresponding to CN1CCN(Cc2ccc(-c3cnc4[nH]cc(-c5cnn(Cc6ccccc6)c5)c4c3)cc2)CC1
Reply: 32.02

Query: Please report % Enzyme Activity Remaining (relative to DMSO controls), MLK3/MAP3K11, Data 1 for the following compound: CN1CCN(Cc2ccc(-c3cnc4[nH]cc(-c5cccc(C(=O)O)c5)c4c3)cc2)CC1
Reply: 46.91

FYI, the data here is from patent US12227500B2.
